Numbers sourced from paper PMC9016704.

assayed.target: furin (Homo sapiens)
protocol: MALDI-TOF-MS-based furin activity assay, TGFβ-derived substrate
Assay type: biochemical
Design: made in house
experimental.context: TGFβ-derived substrate 2.5 µM, 0.02 nM furin; read-out: IC50 Mean ± SD
Sequence (P09958 108-574 limits assumed): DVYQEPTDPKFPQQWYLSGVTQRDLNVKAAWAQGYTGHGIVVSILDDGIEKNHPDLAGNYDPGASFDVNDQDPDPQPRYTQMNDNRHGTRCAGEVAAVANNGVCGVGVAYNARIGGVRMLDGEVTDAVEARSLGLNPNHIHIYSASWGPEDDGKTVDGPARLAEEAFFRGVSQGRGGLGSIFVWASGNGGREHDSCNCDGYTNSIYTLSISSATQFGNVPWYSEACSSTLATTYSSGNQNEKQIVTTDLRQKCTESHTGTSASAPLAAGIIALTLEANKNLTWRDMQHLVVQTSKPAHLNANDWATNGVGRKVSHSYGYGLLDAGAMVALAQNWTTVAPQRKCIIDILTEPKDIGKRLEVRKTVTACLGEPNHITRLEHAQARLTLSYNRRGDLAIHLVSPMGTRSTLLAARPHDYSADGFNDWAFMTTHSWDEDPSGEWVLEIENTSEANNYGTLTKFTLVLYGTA
Assign labels as follows, please: Fulfilled for IC50 below 2 nM; Not fulfilled for IC50 equal to or exceeding 2 nM.

# compound, assigned.label
data = [
    ("CC(=O)NCC1CCN(Cc2cc(Oc3cnc(N4CCN(CCC(=O)O)CC4)nc3)nc(-c3cc(Cl)cc(Cl)c3)c2)CC1", "Fulfilled"),
    ("CN1CCN(c2ncc(Oc3cc(CN4CCC(OCC(=O)O)C4)cc(-c4cc(Cl)cc(Cl)c4)n3)cn2)CC1 (centres unmarked)", "Not fulfilled"),
    ("CC(=O)NCC1CCN(Cc2cc(Oc3cnc(N4CCN(CCC(C)C(=O)O)CC4)nc3)nc(-c3cc(Cl)cc(Cl)c3)c2)CC1 (centres unmarked)", "Fulfilled"),
    ("CC(=O)NCC1CCN(Cc2cc(Oc3ccc(N4CCN(CCC(=O)O)CC4)nc3)nc(-c3cc(Cl)cc(Cl)c3)c2)CC1", "Not fulfilled"),
    ("COCCN1CCN(c2ccc(Oc3cc(CN4CCC(CNC(C)=O)CC4)cc(-c4cc(Cl)cc(Cl)c4)n3)cn2)CC1", "Not fulfilled"),
]

---

assayed.target: furin (Homo sapiens)
protocol: Protein thermostability measurement by nanoDSF
Assay type: binding
Design: made in house
experimental.context: gain versus ligand-free furin
metric.name: ΔTm

# compound, assayed.target, value.observed
data = [
    ("N=C(N)NCCC[C@@H](N)C(=O)N[C@H](CCCNC(=N)N)C(=O)N[C@H](CCCNC(=N)N)C(=O)N[C@H](CCCNC(=N)N)C(=O)N[C@H](CCCNC(=N)N)C(=O)N[C@H](CCCNC(=N)N)C(N)=O [hexa-D-arginine, reference compound]", "furin (Homo sapiens)", "1.6 °C"),
    ("CC(=O)NCC1CCN(Cc2cc(Oc3ccc(N4CCN(CCC(=O)O)CC4)nc3)nc(-c3cc(Cl)cc(Cl)c3)c2)CC1", "furin (Homo sapiens)", "10.5 °C"),
    ("CC(=O)NCC1CCN(Cc2cc(Oc3cnc(N4CCN(CCC(C)C(=O)O)CC4)nc3)nc(-c3cc(Cl)cc(Cl)c3)c2)CC1 (stereo not drawn)", "furin (Homo sapiens)", "11.6 °C"),
    ("CN1CCN(c2ncc(Oc3cc(CN4CCC(OCC(=O)O)C4)cc(-c4cc(Cl)cc(Cl)c4)n3)cn2)CC1 (stereo not drawn)", "furin (Homo sapiens)", "4.0 °C"),
    ("COCCN1CCN(c2ccc(Oc3cc(CN4CCC(CNC(C)=O)CC4)cc(-c4cc(Cl)cc(Cl)c4)n3)cn2)CC1", "furin (Homo sapiens)", "10.8 °C"),
    ("CC(=O)NCC1CCN(Cc2cc(Oc3cnc(N4CCN(CCC(=O)O)CC4)nc3)nc(-c3cc(Cl)cc(Cl)c3)c2)CC1", "furin (Homo sapiens)", "10.9 °C"),
]

---

# Kd per entry
assayed.target: furin (Homo sapiens)
protocol: Surface plasmon resonance binding to immobilized furin
experimental.context: 25°C; hexa-D-Arg: multicycle, poor curve fit; read-out: KD Mean ± SD
Sequence (P09958 108-794): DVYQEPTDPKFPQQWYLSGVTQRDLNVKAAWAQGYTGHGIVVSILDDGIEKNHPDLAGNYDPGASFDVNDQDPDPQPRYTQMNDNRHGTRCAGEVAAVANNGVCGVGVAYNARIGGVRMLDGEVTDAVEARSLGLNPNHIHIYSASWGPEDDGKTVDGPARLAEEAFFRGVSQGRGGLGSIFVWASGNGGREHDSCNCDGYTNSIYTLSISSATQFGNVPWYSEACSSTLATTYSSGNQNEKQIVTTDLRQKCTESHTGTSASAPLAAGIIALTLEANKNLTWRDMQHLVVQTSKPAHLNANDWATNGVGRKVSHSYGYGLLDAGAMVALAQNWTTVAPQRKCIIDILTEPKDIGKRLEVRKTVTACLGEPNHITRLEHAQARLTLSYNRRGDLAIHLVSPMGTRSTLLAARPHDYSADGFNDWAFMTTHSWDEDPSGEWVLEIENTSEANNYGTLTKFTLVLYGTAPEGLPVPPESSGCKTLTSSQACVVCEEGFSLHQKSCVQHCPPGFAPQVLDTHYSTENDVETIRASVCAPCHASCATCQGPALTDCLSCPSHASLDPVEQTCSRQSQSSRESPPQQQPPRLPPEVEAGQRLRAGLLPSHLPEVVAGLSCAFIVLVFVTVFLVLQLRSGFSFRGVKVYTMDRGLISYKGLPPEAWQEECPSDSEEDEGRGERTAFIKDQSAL

# compound, Kd
rows = [
    ("N=C(N)NCCC[C@@H](N)C(=O)N[C@H](CCCNC(=N)N)C(=O)N[C@H](CCCNC(=N)N)C(=O)N[C@H](CCCNC(=N)N)C(=O)N[C@H](CCCNC(=N)N)C(=O)N[C@H](CCCNC(=N)N)C(N)=O [hexa-D-arginine, reference compound]", "530 nM"),
    ("CC(=O)NCC1CCN(Cc2cc(Oc3cnc(N4CCN(CCC(=O)O)CC4)nc3)nc(-c3cc(Cl)cc(Cl)c3)c2)CC1 [Inhibitor 3]", "3.1 nM"),
    ("COCCN1CCN(c2ccc(Oc3cc(CN4CCC(CNC(C)=O)CC4)cc(-c4cc(Cl)cc(Cl)c4)n3)cn2)CC1 [Inhibitor 1]", "28 nM"),
]

---

Tm Mean values, listed per item
assayed.target: furin (Homo sapiens, UniProt P09958)
protocol: Protein thermostability measurement by nanoDSF
Type: binding
Set-up: made in house
experimental.context: furin-inhibitor complex; ligand-free furin 57.7 ± 0.1

# compound, output.unit, Tm Mean
measured = [
    ("CC(=O)NCC1CCN(Cc2cc(Oc3cnc(N4CCN(CCC(C)C(=O)O)CC4)nc3)nc(-c3cc(Cl)cc(Cl)c3)c2)CC1 (stereo not drawn) [Inhibitor 2]", "°C", 69.3),
    ("COCCN1CCN(c2ccc(Oc3cc(CN4CCC(CNC(C)=O)CC4)cc(-c4cc(Cl)cc(Cl)c4)n3)cn2)CC1 [Inhibitor 1]", "°C", 68.4),
    ("CC(=O)NCC1CCN(Cc2cc(Oc3ccc(N4CCN(CCC(=O)O)CC4)nc3)nc(-c3cc(Cl)cc(Cl)c3)c2)CC1 [Inhibitor 4]", "°C", 68.3),
    ("CC(=O)NCC1CCN(Cc2cc(Oc3cnc(N4CCN(CCC(=O)O)CC4)nc3)nc(-c3cc(Cl)cc(Cl)c3)c2)CC1 [Inhibitor 3]", "°C", 68.6),
    ("N=C(N)NCCC[C@@H](N)C(=O)N[C@H](CCCNC(=N)N)C(=O)N[C@H](CCCNC(=N)N)C(=O)N[C@H](CCCNC(=N)N)C(=O)N[C@H](CCCNC(=N)N)C(=O)N[C@H](CCCNC(=N)N)C(N)=O [hexa-D-arginine, reference compound]", "°C", 59.3),
    ("CN1CCN(c2ncc(Oc3cc(CN4CCC(OCC(=O)O)C4)cc(-c4cc(Cl)cc(Cl)c4)n3)cn2)CC1 (stereo not drawn) [Inhibitor 5]", "°C", 61.8),
]

---

assayed.target: furin (Homo sapiens)
protocol: Protein thermostability measurement by nanoDSF
Assay type: binding
Parameters: made in house
experimental.context: furin-inhibitor complex, replicate #1
Reported Tm #1 by item:

# compound, Tm #1 / °C
rows = [
    ("CC(=O)NCC1CCN(Cc2cc(Oc3cnc(N4CCN(CCC(=O)O)CC4)nc3)nc(-c3cc(Cl)cc(Cl)c3)c2)CC1", 68.7),
    ("N=C(N)NCCC[C@@H](N)C(=O)N[C@H](CCCNC(=N)N)C(=O)N[C@H](CCCNC(=N)N)C(=O)N[C@H](CCCNC(=N)N)C(=O)N[C@H](CCCNC(=N)N)C(=O)N[C@H](CCCNC(=N)N)C(N)=O [hexa-D-arginine, reference compound]", 59.3),
    ("CN1CCN(c2ncc(Oc3cc(CN4CCC(OCC(=O)O)C4)cc(-c4cc(Cl)cc(Cl)c4)n3)cn2)CC1 (stereo not drawn)", 61.8),
    ("CC(=O)NCC1CCN(Cc2cc(Oc3cnc(N4CCN(CCC(C)C(=O)O)CC4)nc3)nc(-c3cc(Cl)cc(Cl)c3)c2)CC1 (stereo not drawn)", 69.4),
    ("CC(=O)NCC1CCN(Cc2cc(Oc3ccc(N4CCN(CCC(=O)O)CC4)nc3)nc(-c3cc(Cl)cc(Cl)c3)c2)CC1", 68.3),
    ("COCCN1CCN(c2ccc(Oc3cc(CN4CCC(CNC(C)=O)CC4)cc(-c4cc(Cl)cc(Cl)c4)n3)cn2)CC1", 68.5),
]

---

assayed.target: UniProtKB P09958
protocol: biochemical
experimental.context: IC50 #2
pIC50: −log10 of the molar value.

# mol.smiles, pIC50
data = [
    ("CC(=O)NCC1CCN(Cc2cc(Oc3cnc(N4CCN(CCC(=O)O)CC4)nc3)nc(-c3cc(Cl)cc(Cl)c3)c2)CC1", 9.00),
    ("COCCN1CCN(c2ccc(Oc3cc(CN4CCC(CNC(C)=O)CC4)cc(-c4cc(Cl)cc(Cl)c4)n3)cn2)CC1", 8.96),
]

---

assayed.target: UniProt:P09958
metric.name: Ki (nM)

# molecule, value.observed
measured = [
    ("COCCN1CCN(c2ccc(Oc3cc(CN4CCC(CNC(C)=O)CC4)cc(-c4cc(Cl)cc(Cl)c4)n3)cn2)CC1 [Inhibitor 1]", 3.8),
]

---

assayed.target: UniProt P09958
protocol: Protein thermostability measurement by nanoDSF
Format: binding
Set-up: made in house
experimental.context: furin-inhibitor complex, replicate #2
Recorded measurements of Tm #2, one per entry

# molecule, assayed.target, Tm #2 (°C)
data = [
    ("COCCN1CCN(c2ccc(Oc3cc(CN4CCC(CNC(C)=O)CC4)cc(-c4cc(Cl)cc(Cl)c4)n3)cn2)CC1 [Inhibitor 1]", "UniProt P09958", 68.4),
    ("CN1CCN(c2ncc(Oc3cc(CN4CCC(OCC(=O)O)C4)cc(-c4cc(Cl)cc(Cl)c4)n3)cn2)CC1 (stereo not drawn) [Inhibitor 5]", "UniProt P09958", 61.8),
    ("CC(=O)NCC1CCN(Cc2cc(Oc3cnc(N4CCN(CCC(=O)O)CC4)nc3)nc(-c3cc(Cl)cc(Cl)c3)c2)CC1 [Inhibitor 3]", "UniProt P09958", 68.5),
    ("CC(=O)NCC1CCN(Cc2cc(Oc3cnc(N4CCN(CCC(C)C(=O)O)CC4)nc3)nc(-c3cc(Cl)cc(Cl)c3)c2)CC1 (stereo not drawn) [Inhibitor 2]", "UniProt P09958", 69.2),
    ("CC(=O)NCC1CCN(Cc2cc(Oc3ccc(N4CCN(CCC(=O)O)CC4)nc3)nc(-c3cc(Cl)cc(Cl)c3)c2)CC1 [Inhibitor 4]", "UniProt P09958", 68.2),
    ("N=C(N)NCCC[C@@H](N)C(=O)N[C@H](CCCNC(=N)N)C(=O)N[C@H](CCCNC(=N)N)C(=O)N[C@H](CCCNC(=N)N)C(=O)N[C@H](CCCNC(=N)N)C(=O)N[C@H](CCCNC(=N)N)C(N)=O [hexa-D-arginine, reference compound]", "UniProt P09958", 59.2),
]
